Target: CD137 on Jurkat reporter cells (Promega kit CS196005) (UniProt Q07011 24-255, limits assumed)
Sequence (Q07011 24-255 limits assumed): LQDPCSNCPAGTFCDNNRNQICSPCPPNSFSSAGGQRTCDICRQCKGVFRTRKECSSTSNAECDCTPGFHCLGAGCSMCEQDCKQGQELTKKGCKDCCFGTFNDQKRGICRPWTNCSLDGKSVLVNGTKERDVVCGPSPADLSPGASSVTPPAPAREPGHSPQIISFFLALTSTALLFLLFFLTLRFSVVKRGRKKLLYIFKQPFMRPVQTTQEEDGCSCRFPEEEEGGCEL
Assay: cell-based or functional assay
Starred links: 1 amine or outer side, 2 acyl side, 3 side chain; linkers in the order of their positions; H or OH if unused. Positions of bridges follow the written chain, without caps; N, C: chain ends. Non-standard residues stand in square brackets, D forms with d. Chains are numbered I, II in the order given. No end group written: not given here. TATA = O=C(CC[*:1])N1CN(C(=O)CC[*:2])CN(C(=O)CC[*:3])C1; Dip = N[C@H](C(=O)O)C(c1ccccc1)c1ccccc1; Hyp = O=C(O)[C@@H]1C[C@@H](O)CN1; tBuAla = CC(C)(C)C[C@H](N)C(=O)O; Cba = N[C@@H](CC1CCC1)C(=O)O; dK(PYA) = not defined here; Nle = CCCC[C@H](N)C(=O)O; Mpa = O=C(O)CCS
recorded-endpoint: EC50 (nM), PC3 co-culture
Write the numeric value and append its unit.

{"binder": "BCY13341 (linker I:1-I:8-I:15, II:1-II:8-II:15 via TATA; reading uncertain; also: linker at chain B 5 to a chain's N-terminus via N-(acid-PEG3)-N-bis(PEG3-azide)) peptide 1: C[Hyp][Cba]VNPLCL[Dip]P[dD]WTC[dA] peptide 2: [Mpa][tBuAla]PE[dK(PYA)]PYCFADPY[Nle]C", "result": "0.19 nM"}

Let's switch to this binder now.
Recorded result, BCY13343 (linker I:1-I:8-I:15, II:1-II:8-II:15 via TATA; not fully specified (some residues); reading uncertain; also: 1:2 complex: two copies of chain 2 (BCY12353) on the branched linker, linker at chain B 5 to a chain's N-terminus via N-(acid-PEG3)-N-bis(PEG3-azide)) peptide 1: C[Hyp]LVNPLCL[Dip]PDWTC peptide 2: [Mpa][tBuAla]PE[dK(PYA)]PYCFADPY[Nle]C , EC50 (nM), PC3 co-culture: 0.11 nM
